Below, each entry is listed with its recorded EC50.
molecular target: T1, hEGFR ECR-His6-Avi-Biotin (human, UniProt P00533 25-642, biotinylated on the Avi tag using BirA ligase); assay: ELISA: hEGFR ECR on plate, IgG1 titrated, anti-hFc-HRP; pH 7.4 [table]
T1 construct: also called WT hEGFR ECR; human EGFR ECD; not shown: His6-Avi tag
measurement.name: EC50 (nM)

1) G532 (human IgG1 form) (antibody, V domains shown) VH: QVQLVQSGAEVKRPGSSVKVSCKASGGISDGSAISWVRQAPGQGLEWMGGIRWWGGITNYAQKFQGRVTITADESTSTAYMELSSLRSEDTAVYYCARDSSLGYYDYFDYWGQGTLVTVSS VL: QPVLTQPPSVSAAPGQTARITCGGNNIGEKEVQWYQQRPGQAPVLVIYYDDDRPSGIPERFSGSNSGNTAALTINSVEAGDEADYYCQAWDDYDPVVFGGGTQLTVLG :: 5.58
2) G532^Ctrl (human IgG1 form) (antibody, V domains shown, G532^V with LCDR1 K31N; also called non-pH-dependent variant of G532) VH: QVQLVQSGAEVKRPGSSVKVSCKASGGISDGSAISWVRQAPGQGLEWMGGIRWWGGITNYAQKFQGRVTITADESTSTAYMELSSLRSEDTAVYYCARDSSLGYYDYFDYWGQGTLVTVSS VL: QPVLTQPPSVSAAPGQTARITCGGNNIGENHVQWYQQRPGQAPVLVIYYDSTRPSGIPERFSGSNSGNTAALTINSVEAGDEADYYCQAWDDYDPVVFGGGTQLTVLG :: 0.635
3) G5V2 (human IgG1 form) (antibody, V domains shown) VH: QVQLVQSGAEVKRPGSSVKVSCKASGGISDGSAISWVRQAPGQGLEWMGGIYFFNGNTNYAQKFQGRVTITADESTSTAYMELSSLRSEDTAVYYCARDSSLGYYDYFDYWGQGTLVTVSS VL: QPVLTQPPSVSAAPGQTARITCGGNNIGEKYVQWYQQRPGQAPVLVIYYDDDRPSGIPERFSGSNSGNTAALTINSVEAGDEADYYCQAWDDYDPVVFGGGTQLTVLG :: 0.595
4) G532^V (human IgG1 form) (antibody, V domains shown, G532 with LCDR1 E32H and LCDR2 D52S, D53T) VH: QVQLVQSGAEVKRPGSSVKVSCKASGGISDGSAISWVRQAPGQGLEWMGGIRWWGGITNYAQKFQGRVTITADESTSTAYMELSSLRSEDTAVYYCARDSSLGYYDYFDYWGQGTLVTVSS VL: QPVLTQPPSVSAAPGQTARITCGGNNIGEKHVQWYQQRPGQAPVLVIYYDSTRPSGIPERFSGSNSGNTAALTINSVEAGDEADYYCQAWDDYDPVVFGGGTQLTVLG :: 0.517
